# Assay Remarks: Pharmacokinetics and oral bioavailability in the mouse
# Format: in vivo
# Condition Details: 10 mg/kg, ratio of oral to IV dose-normalized AUC
Assay Readout: F on AUC

Molecule: NC(=O)c1cccc2c1C(=O)N(C1CCN(Cc3ccc[nH]3)CC1)C2 [(16)]
Assay Readout: F on AUC
Test Value: 37%
--
Molecule: NC(=O)c1cccc2c1C(=O)N(C1CCN(C3CCCCC3)CC1)C2 [(11)]
Assay Readout: F on AUC
Test Value: 100%
--
Molecule: NC(=O)c1cccc2c1C(=O)N(C1CCN(Cc3ccccn3)CC1)C2 [(15)]
Assay Readout: F on AUC
Test Value: 68%
--
Molecule: NC(=O)c1cccc2c1C(=O)N(C1CCN(Cc3ccoc3)CC1)C2 [(14)]
Assay Readout: F on AUC
Test Value: 57%
--
Molecule: NC(=O)c1cccc2c1C(=O)N(CCN1CCc3ccccc3C1)C2 [(3)]
Assay Readout: F on AUC
Test Value: 30%

----------
Collected DC50 values appear next to each entry.
# Tested On: UniProt Q9UGN5
# Sequence (Q9UGN5 whole entry): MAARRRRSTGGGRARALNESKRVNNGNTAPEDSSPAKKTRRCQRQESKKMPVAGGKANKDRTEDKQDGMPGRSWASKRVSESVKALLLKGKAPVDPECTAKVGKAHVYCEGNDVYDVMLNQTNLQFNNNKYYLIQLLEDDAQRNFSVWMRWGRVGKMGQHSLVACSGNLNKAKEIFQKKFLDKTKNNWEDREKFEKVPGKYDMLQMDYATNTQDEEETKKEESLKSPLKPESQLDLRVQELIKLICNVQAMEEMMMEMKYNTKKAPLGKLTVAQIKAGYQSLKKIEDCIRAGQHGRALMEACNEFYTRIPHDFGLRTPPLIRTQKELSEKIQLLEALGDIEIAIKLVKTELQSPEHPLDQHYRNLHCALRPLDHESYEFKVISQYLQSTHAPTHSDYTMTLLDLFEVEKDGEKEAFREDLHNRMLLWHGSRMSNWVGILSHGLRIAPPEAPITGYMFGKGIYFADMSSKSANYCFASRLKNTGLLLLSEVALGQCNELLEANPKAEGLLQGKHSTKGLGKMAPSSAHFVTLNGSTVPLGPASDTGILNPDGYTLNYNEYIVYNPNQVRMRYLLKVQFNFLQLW
# Assay Remarks: Fluorescence polarization displacement assay with probe of formula (IP), PARP-2
# Type: binding
# Condition Details: probe P1
Structures can show the parent of a compound that is named as a salt.

Molecule: NC(=O)c1cccc2c1C(=O)N(CCCN1CCCc3ccccc31)C2 [(20)]
DC50: 0.58 µM
//
Molecule: NC(=O)c1cccc2c1C(=O)N(CCCN1CCN(c3ccccc3)CC1)C2 [(22)]
DC50: 2.12 µM
//
Molecule: NC(=O)c1cccc2c1C(=O)N(C1CCN(C3CCCCC3)CC1)C2 [(11)]
DC50: 2.53 µM
//
Molecule: NC(=O)c1cc(F)cc2c1C(=O)N(C1CCN(C3CCCCC3)CC1)C2 [(29)]
DC50: 2.92 µM
//
Molecule: NC(=O)c1cccc2c1C(=O)N(CCC1CCN(Cc3ccccc3)CC1)C2 [(31), Hydrochloride]
DC50: > 10 µM
//
Molecule: NC(=O)c1cc(F)cc2c1C(=O)N(CCCN1CCOCC1)C2 [(23)]
DC50: 2 µM
//
Molecule: CC1CCCC(C)N1CCCN1Cc2cccc(C(N)=O)c2C1=O (stereo not shown) [(27), Hydrochloride]
DC50: > 10 µM

----------
# Tested On: UniProt P09874
# Sequence (P09874 whole entry): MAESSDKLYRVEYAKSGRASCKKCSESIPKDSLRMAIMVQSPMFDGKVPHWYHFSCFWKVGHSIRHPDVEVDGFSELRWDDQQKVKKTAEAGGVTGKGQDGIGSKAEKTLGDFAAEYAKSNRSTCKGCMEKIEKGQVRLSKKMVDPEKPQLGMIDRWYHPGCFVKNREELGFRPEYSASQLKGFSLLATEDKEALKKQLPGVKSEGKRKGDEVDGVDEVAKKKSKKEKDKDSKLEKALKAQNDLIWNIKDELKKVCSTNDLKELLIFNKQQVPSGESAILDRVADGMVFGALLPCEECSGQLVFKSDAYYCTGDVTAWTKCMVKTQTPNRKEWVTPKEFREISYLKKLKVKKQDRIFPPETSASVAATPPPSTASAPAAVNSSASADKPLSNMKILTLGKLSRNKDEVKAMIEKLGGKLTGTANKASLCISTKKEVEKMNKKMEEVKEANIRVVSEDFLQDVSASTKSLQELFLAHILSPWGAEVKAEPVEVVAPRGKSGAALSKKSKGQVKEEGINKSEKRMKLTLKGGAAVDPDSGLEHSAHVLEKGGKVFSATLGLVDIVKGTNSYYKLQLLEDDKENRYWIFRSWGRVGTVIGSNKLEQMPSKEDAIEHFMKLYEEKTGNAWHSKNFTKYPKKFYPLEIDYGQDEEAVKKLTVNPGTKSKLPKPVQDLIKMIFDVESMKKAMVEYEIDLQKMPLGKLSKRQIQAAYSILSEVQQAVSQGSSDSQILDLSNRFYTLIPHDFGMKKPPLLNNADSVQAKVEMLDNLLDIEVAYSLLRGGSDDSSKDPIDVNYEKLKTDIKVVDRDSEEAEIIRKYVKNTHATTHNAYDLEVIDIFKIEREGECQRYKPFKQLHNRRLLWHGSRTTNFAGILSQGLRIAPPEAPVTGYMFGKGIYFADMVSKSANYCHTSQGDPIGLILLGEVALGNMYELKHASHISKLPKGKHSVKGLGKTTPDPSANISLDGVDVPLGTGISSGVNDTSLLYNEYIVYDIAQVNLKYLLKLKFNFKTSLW
# Assay Remarks: Fluorescence polarization displacement assay with probe of formula (IP), PARP-1
# Type: binding
# Condition Details: probe P1
The entries below are paired with their reported DC50.

Smiles Entry: NC(=O)c1cccc2c1C(=O)N(C1CCN(Cc3ccccc3)CC1)C2
DC50: < 0.25 µM
//
Smiles Entry: NC(=O)c1cc(F)cc2c1C(=O)N(CCCN1CCOCC1)C2
DC50: < 0.25 µM
//
Smiles Entry: CN1CCN(CCCN2Cc3cccc(C(N)=O)c3C2=O)CC1
DC50: 0.28 µM
//
Smiles Entry: NC(=O)c1cccc2c1C(=O)N(C1CCN(C3CCCCC3)CC1)C2
DC50: < 0.25 µM
//
Smiles Entry: NC(=O)c1cccc2c1C(=O)N(CCCN1CCN(c3ccccc3)CC1)C2
DC50: < 0.25 µM

----------
# Assay Remarks: Pharmacokinetics and oral bioavailability in the mouse
# Assay type: in vivo
# Condition Details: male, Balb Nu/Nu, plasma, 10 mg/kg intravenous bolus, mean value, read-out: Vdss (IV bolus)
We use 3 L/kg as the dividing line for Vd: on or above the line is Condition met, below is Condition not met.

Smiles Entry: NC(=O)c1cccc2c1C(=O)N(C1CCN(Cc3ccc[nH]3)CC1)C2
Qualitative Label: Condition not met
//
Smiles Entry: NC(=O)c1cccc2c1C(=O)N(C1CCN(Cc3ccoc3)CC1)C2
Qualitative Label: Condition not met
//
Smiles Entry: NC(=O)c1cccc2c1C(=O)N(C1CCN(C3CCCCC3)CC1)C2
Qualitative Label: Condition met
//
Smiles Entry: NC(=O)c1cccc2c1C(=O)N(C1CCN(Cc3ccccn3)CC1)C2
Qualitative Label: Condition not met
//
Smiles Entry: NC(=O)c1cccc2c1C(=O)N(CCN1CCc3ccccc3C1)C2
Qualitative Label: Condition not met
